Each recorded value in this set is attributed to ChEMBL document CHEMBL5620375.

- Tested on: Mycobacterium tuberculosis
- test_protocol: Antitubercular activity against Mycobacterium tuberculosis H37Ra assessed as inhibition of bacterial growth by microplate alamar blue assay
- Assay type: functional
property_label: MIC (µM)
# number only, unit µM dropped from output

If you can, please state the reported MIC value of CC(=O)N1CCC(C(=O)NCc2ccc3c(c2)-c2[nH]c(=O)c(C#N)c(-c4cc(C(F)(F)F)ccc4Cl)c2CC3)CC1 .
53.6

Query: MIC; subject: CC(=O)N1CCC(C(=O)NCc2ccc3c(c2)-c2[nH]c(=O)c(C#N)c(-c4cc(Cl)ccc4Cl)c2CC3)CC1
28.4

Look at this molecule and give its reported MIC. COc1cc(-c2c3c([nH]c(=O)c2C#N)-c2ccccc2CC3)ccc1O
90.7

Entry under review: N#Cc1c(-c2ccccc2Br)c2c([nH]c1=O)-c1ccccc1CC2 . Reported MIC?
10.3

Can you share its MIC? I mean this molecule: COc1cccc(-c2c3c([nH]c(=O)c2C#N)-c2ccccc2CC3)c1
23.8

Which MIC is reported for this molecule? COc1ccc(OC)c(-c2c3c([nH]c(=O)c2C#N)-c2ccccc2CC3)c1
5.44

Data request, read-out MIC, for COc1ccccc1-c1c2c([nH]c(=O)c1C#N)-c1ccccc1CC2
2.98

What measured MIC goes with N#Cc1c(O)nc2c(c1-c1cccc([N+](=O)[O-])c1)CCc1ccccc1-2 ?
5.67

Consider the molecule shown here: N#Cc1c(-c2ccc(Cl)cc2Cl)c2c([nH]c1=O)-c1ccccc1CC2 What is its recorded MIC?
5.31

Consider the record given below.
If you can, please state the reported MIC value of COc1ccc(-c2c3c([nH]c(=O)c2C#N)-c2ccccc2CC3)cc1O .
5.66

====

- test_protocol: Selectivity index, ratio of CC50 for cytotoxicity against African green monkey Vero cells to MIC for antitubercular activity against Mycobacterium tuberculosis H37Ra
- Format: toxicity, cell-based
- recorded_conditions: read-out: Selectivity Index
property_label: selectivity ratio

Worked set:
Which value of selectivity ratio has been reported for COc1cc(-c2c3c([nH]c(=O)c2C#N)-c2ccccc2CC3)ccc1O in the records?
4

Fill blank: measured selectivity ratio of the molecule CC(=O)N1CCC(C(=O)NCc2ccc3c(c2)-c2[nH]c(=O)c(C#N)c(-c4cc(Cl)ccc4Cl)c2CC3)CC1 is ____.
16

Further cases:
What does the record list as selectivity ratio for COc1ccccc1-c1c2c([nH]c(=O)c1C#N)-c1ccccc1CC2 ?
127

====

Each entry below carries its recorded selectivity ratio.
- test_protocol: Selectivity index, ratio of CC50 for cytotoxicity against African green monkey Vero cells to IC50 for antimalarial activity against chloroquine-resistant Plasmodium falciparum RKL9
- Assay type: toxicity, cell-based
- recorded_conditions: read-out: Ratio CC50/IC50
Give your answer as a number; write no unit.

Tell me the measured selectivity ratio of COc1cc(-c2c3c([nH]c(=O)c2C#N)-c2ccccc2CC3)ccc1O , please.
18300

Here's the next entry for you.
Reported selectivity ratio for CC(=O)N1CCC(C(=O)NCc2ccc3c(c2)-c2[nH]c(=O)c(C#N)c(-c4cc(Cl)ccc4Cl)c2CC3)CC1 : what is it?
11800

====

- Tested on: Mycobacterium tuberculosis
- test_protocol: Antitubercular activity against XDR Mycobacterium tuberculosis RCMB 2674 assessed as inhibition of bacterial growth by microplate alamar blue assay
- Format: functional
# MIC per entry
# value in µM; strip the unit string

Given the entry COc1ccc(OC)c(-c2c3c([nH]c(=O)c2C#N)-c2ccccc2CC3)c1 , report its measured MIC.
175

Record request: MIC value, item COc1ccccc1-c1c2c([nH]c(=O)c1C#N)-c1ccccc1CC2
23.8

Endpoint output: MIC of COc1ccc(-c2c3c([nH]c(=O)c2C#N)-c2ccccc2CC3)cc1O . Value?
182

# ---- query molecule ----
Requested field: MIC. Item: N#Cc1c(O)nc2c(c1-c1cccc([N+](=O)[O-])c1)CCc1ccccc1-2
91.1
